Where do the numbers come from? From PubChem BioAssay (NCI).

- Tested on: HCC-2998 colon
- method-description: NCI tumour cell line growth inhibition, 48 h; in the data active = GI50 below about 0.43 µM; inactive = the rest
Labels: active, inactive

INSERT INTO results (compound, assigned_category) VALUES
  ('COc1cc2c(cc1OC)-c1cc(OC)c(OC)cc1C(CN(C)C)C2 (centres undefined)', 'inactive'),
  ('CCCCCCCCCCSC(=N)N (tested in a mixture with another compound)', 'inactive'),
  ('Cc1cc2c(cc1C)[n+](=O)c(C(=O)c1ccccc1)c(C(F)F)n2[O-]', 'inactive'),
  ('CCOC(=O)n1cc(C2=C(c3ccc(OC)c(OC)c3)COC2=O)c2ccccc21', 'active'),
  ('Nc1nc2[nH]cc(CCc3ccc(C(=O)N[C@@H](CCC(=O)O)C(=O)O)cc3)c2c(=O)[nH]1', 'active'),
  ('O=C(Nc1cccc(C(F)(F)F)c1)Nc1cccc(C(F)(F)F)c1', 'inactive'),
  ('CC(=O)N[C@@H](Cc1ccc(OP(=O)(O)O)cc1)C(=O)N[C@H]1CCC(=O)N2CCC[C@@H](C(=O)Nc3cccc4ccccc34)N2C1=O', 'inactive'),
  ('O=C(NC1CCCCC1)NS(=O)(=O)c1ccc(N2N=C3c4ccccc4CC3C2c2ccc(Cl)cc2)cc1 (centres undefined)', 'inactive'),
  ('CN1CCN(c2ccc(Nc3ncc(Cl)c(NC[C@@H]4CCCO4)n3)cc2)CC1', 'inactive'),
  ('c1ccc(-c2n(Cc3ccc4ccccc4n3)cc[n+]2Cc2ccc3ccccc3c2)cc1', 'inactive'),
  ('COc1ccc(C(c2cc(OC)c(OC)c(OC)c2)n2cncn2)cc1O (centres undefined)', 'inactive'),
  ('CCCCCCOc1ccc(/C=N/Nc2cc(C)nc3ccc(Cl)cc23)cc1', 'inactive'),
  ('CCNC(=O)C#Cc1ccc2c(C(=Nc3ccc(CN(C)C)cc3)c3ccccc3)c(O)[nH]c2c1', 'active'),
  ('COc1cc(-c2nn(-c3cccc(NC(=O)c4ccccc4)c3)cc2-c2ccncc2)ccc1Cl', 'inactive');

====

- System: MDA-MB-435
Outcomes: T for active, F for inactive

INSERT INTO assay_data (compound, assigned_category) VALUES
  ('CCCCCCCCCCSC(=N)N (tested in a mixture with another compound)', 'F'),
  ('C=C1C(=O)O[C@H]2[C@H]1CC/C(CNC(=O)c1cc3ccccc3[nH]1)=C\CC[C@@]1(C)O[C@@H]21', 'F'),
  ('Cc1cc(Nc2ccc(C)c(Cl)c2)n2nc(C(F)(F)F)nc2n1', 'F'),
  ('CC(=C(c1ccc(OCCN2CCCCC2)cc1)c1ccc(OCCN2CCCCC2)cc1)c1ccc(Cl)cc1', 'T'),
  ('COC(=O)[C@]12CC[C@@H](C)[C@H](C)[C@@H]1C1=CC[C@@H]3[C@@]4(C)C[C@@H](O)[C@H](O)[C@@](C)(CO)[C@@H]4[C@H](O)C[C@@]3(C)[C@]1(C)CC2', 'F'),
  ('CN1CCN(c2ccc(Nc3ncc(Cl)c(NC[C@@H]4CCCO4)n3)cc2)CC1', 'F'),
  ('COc1cc(-c2nn(-c3cccc(NC(=O)c4ccccc4)c3)cc2-c2ccncc2)ccc1Cl', 'T'),
  ('COC(=O)/C=C/c1cc(OC(C)=O)c2c(c1)[C@@H](C(=O)OC)[C@H](c1ccc(OC(C)=O)c(OC(C)=O)c1)O2', 'T'),
  ('COc1ccc(Cn2c(Br)c3c(c2Br)-c2nc(N)sc2CC3)cc1', 'T'),
  ('O=C1c2c(F)c(F)c(F)c(F)c2C(=O)N1c1ccc(F)cc1F', 'F'),
  ('COC(=O)c1cc2oc(/C=C3/SC(=S)N(NC(C)=O)C3=O)cc2n1C', 'F'),
  ('COc1ccc(CN2C(=O)C(Cl)=C(Nc3cccc(C(F)(F)F)c3)C2=O)cc1', 'F'),
  ('CCCCCCOc1ccc(/C=N/Nc2cc(C)nc3ccc(Cl)cc23)cc1', 'F'),
  ('COc1c2ccccc2c(OC)c2[nH]c(=O)ccc12', 'F');

====

- Test system: SF-539 CNS
- method-description: NCI tumour cell line growth inhibition, 48 h
Attribute: TGI
parameter-measured: TGI (µM)

INSERT INTO results (molecule, unit_spec, limit_sign, measurement) VALUES
  ('C=C1c2nc3ccccc3n2C=C(c2ccc(OC)cc2)N1c1ccc(OC)cc1', 'µM', '=', 64.8),
  ('C/C(=N\NC(N)=S)c1ccc2c(c1)Sc1ccccc1O2', 'µM', '=', 4.79),
  ('CCCOc1nc(N)c2cnn(C3CCCCO3)c2n1 (centres undefined)', 'µM', '>', 100),
  ('C[C@]12c3c4cc(NC(=O)C(=O)NCc5ccc(-c6ccccn6)nc5)cc3Oc3cc(NC(=O)C(=O)NCc5ccc(-c6ccccn6)nc5)cc(c31)OC1C=C(NC(=O)C(=O)NCc3ccc(-c5ccccn5)nc3)C=C(O4)C12 (some centres undefined)', 'µM', '>', 100);

====

For reference, GI50 measured on NCI-H460 lung:
parameter-measured: GI50

INSERT INTO measurements (compound, parameter_measured, measurement) VALUES
  ('CCCCCCCCCCSC(=N)N (tested in a mixture with another compound)', 'GI50', '2.64 µM'),
  ('NC(=S)N/N=C1\c2cc(Cl)ccc2-c2c1cc(Cl)cc2[N+](=O)[O-]', 'GI50', '3.27 µM'),
  ('Fc1cc(-c2nnc3n2N=C(c2ccc(Cl)cc2)CS3)c(Cl)cc1Cl', 'GI50', '18.2 µM'),
  ('CC(=O)N[C@@H](Cc1ccc(OP(=O)(O)O)cc1)C(=O)N[C@H]1CCC(=O)N2CCC[C@@H](C(=O)Nc3cccc4ccccc34)N2C1=O', 'GI50', '> 25 µM'),
  ('COc1cc(-c2nc3sccn3c2-c2ccnc(NCCNS(=O)(=O)c3ccc(F)cc3)n2)ccc1F', 'GI50', '2.44 µM');

====

- Tested on: MDA-MB-231 breast
- method-description: NCI tumour cell line growth inhibition, 48 h; in the data active means GI50 below about 0.43 µM; inactive means the rest
Labels: active, inactive

INSERT INTO results (chemical_string, assigned_category) VALUES
  ('O=[N+]([O-])c1cc([N+](=O)[O-])c(C(F)(F)F)cc1NN=C(c1ccc(O)cc1)c1ccc(O)cc1', 'inactive'),
  ('CC(C)[C@@H]1NC(=O)[C@]2(C)CSC(=N2)c2ccnc(c2)CNC(=O)C[C@@H](/C=C/CCS)OC1=O', 'inactive'),
  ('CC(=C(c1ccc(OCCN2CCCCC2)cc1)c1ccc(OCCN2CCCCC2)cc1)c1ccc(Cl)cc1', 'active'),
  ('COc1ccccc1NC(=O)c1cc2cc(Br)ccc2cc1O', 'inactive'),
  ('Cc1ccc(-c2nc(N3CCNCC3)c3oc(-c4ccc(C)cc4)nc3n2)cc1', 'inactive'),
  ('COCCn1cc(-c2nc(-c3cc4cccnc4[nH]3)cs2)c2cc(OC)ccc21', 'inactive'),
  ('Cc1cc2c(cc1C)[n+](=O)c(C(=O)c1ccccc1)c(C(F)F)n2[O-]', 'inactive'),
  ('C/C=C/[C@@H]1O[C@@H]2COC(=O)C2=C[C@@H]1O', 'inactive'),
  ('CC[C@@H](c1ccc(O)c(O)c1)[C@@H](CC)c1ccc(O)c(O)c1', 'inactive');

====

- Test system: OVCAR-4 ovarian
- method-description: NCI tumour cell line growth inhibition, 48 h; in the data active means GI50 below about 0.43 µM; inactive means the rest
Classes used: 1 for active, 0 for inactive

INSERT INTO results (molecule, assigned_category) VALUES
  ('CN1CCN(C(=O)COc2ccc(C34CC5CC(CC(C5)C3)C4)cc2)CC1', 0),
  ('NCCNCCNCCN', 0),
  ('Cc1ccc(-c2nc(N3CCNCC3)c3oc(-c4ccc(C)cc4)nc3n2)cc1', 0),
  ('C=C1C(=O)O[C@H]2[C@H]1CC/C(CNC(=O)c1cc3ccccc3[nH]1)=C\CC[C@@]1(C)O[C@@H]21', 0),
  ('CN(C)CC(O)c1ccc(/C=C/c2ccc(Cl)cc2)cc1 (centres undefined)', 0),
  ('CCCCCCCCCCSC(=N)N (tested in a mixture with another compound)', 0),
  ('COc1cc(-c2nn(-c3cccc(NC(=O)c4ccccc4)c3)cc2-c2ccncc2)ccc1Cl', 0),
  ('CC(C)[C@@H]1NC(=O)[C@]2(C)CSC(=N2)c2ccnc(c2)CNC(=O)C[C@@H](/C=C/CCS)OC1=O', 0),
  ('Cc1[cH-]c(=O)n(-c2ccccc2)n1.[Au+].[Au].c1ccc([PH+](c2ccccc2)c2ccccc2)cc1.c1ccc([PH+](c2ccccc2)c2ccccc2)cc1', 0),
  ('Cc1cc(Nc2ccc(C)c(Cl)c2)n2nc(C(F)(F)F)nc2n1', 0),
  ('COc1cc(/C=C2\CN(S(=O)(=O)c3ccc(C)cc3)C/C(=C\c3cc(CN4CCCC4)c(O)c(OC)c3)C2=O)cc(CN2CCCC2)c1O', 0),
  ('O=C(Nc1cccc(C(F)(F)F)c1)Nc1cccc(C(F)(F)F)c1', 0),
  ('Cn1cc(-c2cc3c(N4CCN(c5ncc([C@@](C)(N)c6ccc(F)cc6)cn5)CC4)ncnn3c2)cn1', 0),
  ('CC(=O)N[C@@H](Cc1ccc(OP(=O)(O)O)cc1)C(=O)N[C@H]1CCC(=O)N2CCC[C@@H](C(=O)Nc3cccc4ccccc34)N2C1=O', 0),
  ('COc1cc2c(cc1OC)-c1cc(OC)c(OC)cc1C(CN(C)C)C2 (centres undefined)', 0),
  ('Cc1cc2c(cc1C)[n+](=O)c(C(=O)c1ccccc1)c(C(F)F)n2[O-]', 0),
  ('COC(=O)c1cc2oc(/C=C3/SC(=S)N(NC(C)=O)C3=O)cc2n1C', 0),
  ('O=C1c2c(F)c(F)c(F)c(F)c2C(=O)N1c1ccc(F)cc1F', 0),
  ('COCCn1cc(-c2nc(-c3cc4cccnc4[nH]3)cs2)c2cc(OC)ccc21', 1);
